ASSAYED TARGET: Savinase Ultra 16.0L (Lederbergia lenta, UniProt P29600)
Construct: purchased Sigma-Aldrich
Sequence (P29600 1-269): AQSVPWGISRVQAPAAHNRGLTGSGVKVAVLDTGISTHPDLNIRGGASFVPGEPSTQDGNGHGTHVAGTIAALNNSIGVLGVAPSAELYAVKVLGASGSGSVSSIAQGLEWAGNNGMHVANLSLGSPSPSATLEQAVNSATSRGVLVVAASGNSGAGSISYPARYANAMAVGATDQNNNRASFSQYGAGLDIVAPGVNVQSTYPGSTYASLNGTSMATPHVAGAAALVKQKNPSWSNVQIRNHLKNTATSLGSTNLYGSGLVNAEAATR
ASSAY REMARKS: protease storage stability in liquid formulation (Suc-AAPF-pNA substrate)
Format: biochemical
EXPERIMENTAL SETUP: base formulation II., 1.5 wt % component (a), storage at 37° C., 21 d
RESULT TYPE: protease activity, referring to reference formulation at time 0

// known answers, use as guide
O=C(CC(O)(CC(=O)OCc1ccccc1)C(=O)OCc1ccccc1)OCc1ccccc1 [A.8, Tribenzylcitrate]	87
CCCCOC(=O)CC(CC(=O)OCCCC)(OC(C)=O)C(=O)OCCCC [A.4, Acetyltributylcitrate]	85

Query for Savinase Ultra 16.0L (Lederbergia lenta, UniProt P29600): what protease activity, referring to reference formulation at time 0 does the record show for CCCOC(=O)CC(O)(CC(=O)OCCC)C(=O)OCCC [A.2, Tripropylcitrate] ?
87

Query for Savinase Ultra 16.0L (Lederbergia lenta, UniProt P29600): what protease activity, referring to reference formulation at time 0 does the record show for CCOC(=O)CC(O)(CC(=O)OCC)C(=O)OCC [A.1, Triethylcitrate] ?
85

----------
ASSAYED TARGET: Savinase Ultra 16.0L (Lederbergia lenta, UniProt P29600)
Construct: purchased Sigma-Aldrich
ASSAY REMARKS: protease storage stability in liquid formulation (Suc-AAPF-pNA substrate)
Format: biochemical
EXPERIMENTAL SETUP: base formulation III., 1.5 wt % component (a), storage at 37° C., 7 d
Parameter protease activity, referring to reference formulation at time 0: see the listing below.
Respond using a number only.

// known answers, use as guide
CCCOC(=O)CC(O)(CC(=O)OCCC)C(=O)OCCC [A.2, Tripropylcitrate]	95
CCOC(=O)CC(CC(=O)OCC)(OC(C)=O)C(=O)OCC [A.5, Acetyltriethylcitrate]	92
CCCCOC(=O)CC(CC(=O)OCCCC)(OC(C)=O)C(=O)OCCCC [A.4, Acetyltributylcitrate]	95

We next turn to a different molecule, shown below.
If you can, please state the reported protease activity, referring to reference formulation at time 0 value of CCOC(=O)CC(O)(CC(=O)OCC)C(=O)OCC [A.1, Triethylcitrate] .
93

----------
ASSAYED TARGET: Savinase Ultra 16.0L (Lederbergia lenta, UniProt P29600)
Construct: purchased Sigma-Aldrich
ASSAY REMARKS: protease storage stability in liquid formulation (Suc-AAPF-pNA substrate)
Assay type: biochemical
EXPERIMENTAL SETUP: base formulation V., 2.0 wt % component (a), storage at 37° C., 21 d
RESULT TYPE: protease activity, referring to reference formulation at time 0
Respond using a number only.

// known answers, use as guide
CCOC(=O)CC(O)(CC(=O)OCC)C(=O)OCC [A.1, Triethylcitrate]	81
O=C(CC(O)(CC(=O)OCc1ccccc1)C(=O)OCc1ccccc1)OCc1ccccc1 [A.8, Tribenzylcitrate]	82
CCCCOC(=O)CC(CC(=O)OCCCC)(OC(C)=O)C(=O)OCCCC [A.4, Acetyltributylcitrate]	80

If you can, please state the reported protease activity, referring to reference formulation at time 0 value of CCCOC(=O)CC(O)(CC(=O)OCCC)C(=O)OCCC [A.2, Tripropylcitrate] .
82
